Assignment: determine reported growth for the given molecules.
tested on: CCRF-CEM leukemia; assay: NCI-60 one-dose screen, 48 h (100 = growth as untreated, 0 = no growth, -100 = all killed); settings: 10 µM unless noted
The panel holds about 83,000 compounds, 20% with a hit somewhere; the sample as a whole holds those more often. The source made the active and inactive calls. How the source made its calls: active means growth percent below 10; inactive means the rest.

# lookup: CCOC(=O)c1cn2ncnc(Oc3ccc(NC(=O)NCCN(CC)CC)c(Cl)c3)c2c1C on CCRF-CEM leukemia, growth = 35.5% (inactive)

# lookup: CCCCn1c(-c2ccc(-c3nc(-c4ccc(Cl)cc4)no3)cc2)nc(-c2ccccc2)c1-c1ccccc1 on CCRF-CEM leukemia, growth = 69.7% (inactive)

# lookup: CC(=O)c1ccc(Nc2nc(C(C)=O)c(C)s2)cc1 on CCRF-CEM leukemia, growth = 90.9% (inactive)

# lookup: CN(C)CCCNc1nc2ccccc2c2c(=O)c3cc(F)ccc3sc12 on CCRF-CEM leukemia, growth = 10% (active)

# lookup: O=C(O)c1cn(C2CC2)c2cc(N3CCN(C(=O)Nc4nc(-c5ccc(Cl)cc5)cs4)CC3)c(F)cc2c1=O on CCRF-CEM leukemia, growth = 13.6% (inactive)

# lookup: BrCCCc1n(Cc2ccc3ccccc3c2)c2ccccc2[n+]1Cc1ccc2ccccc2c1 on CCRF-CEM leukemia, growth = -41.6% (active)

# lookup: C#Cc1cccc(NC(=O)Nc2ccccc2NC(=O)CCl)c1 on CCRF-CEM leukemia, growth = 22.2% [8.25 µM] (inactive)

# lookup: CCCCC[C@H](O)C/C=C1/C(=O)C=C[C@@H]1C/C=C\CCCC(=O)OC on CCRF-CEM leukemia, growth = 2.62% (active)

# lookup: O=C(/C=C/c1sc(Cl)nc1Cl)c1ccccc1 on CCRF-CEM leukemia, growth = 34.9% (inactive)

# lookup: Clc1ccc2c(c1)N(CCCN1CCCC1)c1ccccc1S2 on CCRF-CEM leukemia, growth = 36.3% (inactive)

# lookup: CN1C(=O)CNC(=O)[C@H](NC(=O)c2nc3ccccc3cc2O)CSSC[C@H]1C(=O)NCCc1nc2ccccc2cc1O on CCRF-CEM leukemia, growth = 23.5% (inactive)

# lookup: Cc1ccc(S(=O)(=O)Oc2ccc(NC(=O)c3ccc(Cl)cc3)cc2)cc1 on CCRF-CEM leukemia, growth = 104% (inactive)

# lookup: O=C(Nc1ccc(I)cc1F)c1cc(I)ccc1O on CCRF-CEM leukemia, growth = 15.3% (inactive)

# lookup: COc1cc(CCCO)c(OC)c(OC)c1OC on CCRF-CEM leukemia, growth = 108% (inactive)

# lookup: COc1ccc(C2CC(c3ccc(Nc4ccnc5cc(Cl)ccc45)cc3)=NN2C=O)cc1 (centres undefined) on CCRF-CEM leukemia, growth = 14% (inactive)

# lookup: CCOC(=O)Nc1ccc(C(=O)/C=C/c2ccccc2)cc1 on CCRF-CEM leukemia, growth = 91.6% (inactive)

# lookup: CSc1nc2ccc(C)cc2cc1/C=N/O on CCRF-CEM leukemia, growth = 105% (inactive)

# lookup: CCCCNC(=O)Oc1ccc(/C(=C(\C)c2ccc(Cl)cc2)c2ccc(OCCN(CC)CC)cc2)cc1 on CCRF-CEM leukemia, growth = 64.4% (inactive)

# lookup: O=[N+]([O-])c1ccc(Cl)c(-c2cc(CCCCO)on2)c1 on CCRF-CEM leukemia, growth = 108% (inactive)

# lookup: O=c1c2cccc(Cl)c2sc2c(NCCCNCCO)nc3ccccc3c12 on CCRF-CEM leukemia, growth = -14.6% (active)

# lookup: CCc1cccc2c1S/C(=C/c1ccc(Cl)cc1)C2=O on CCRF-CEM leukemia, growth = 98% (inactive)

# lookup: CC(C)n1cnc2c(Nc3cccc(Cl)c3)nc(N[C@H]3CCCC[C@@H]3N)nc21 on CCRF-CEM leukemia, growth = 66.6% (inactive)

# lookup: COc1ccc2c(c1)/C(=C/c1sc(=S)n(Cc3ccco3)c1O)C=N2 on CCRF-CEM leukemia, growth = 18.3% (inactive)

# lookup: Oc1ccc(Cl)cc1Cc1cc(Cl)cc(Cl)c1O on CCRF-CEM leukemia, growth = 19.5% (inactive)

# lookup: CCOC(=O)c1[nH]c(C)c(C(=O)OCc2ccccc2C#N)c1C on CCRF-CEM leukemia, growth = 92.4% (inactive)

# lookup: Cc1cc(=O)[nH]c(=O)n1Cc1cn(-c2c3ccccc3nc3ccccc23)nn1 on CCRF-CEM leukemia, growth = 64.7% (inactive)

# lookup: CNc1nc2c(s1)C(c1cc(F)ccc1F)CC(=O)N2 (centres undefined) on CCRF-CEM leukemia, growth = 40% (inactive)

# lookup: O=C(CCOCCNC(=O)COc1ccc2c(c1)OCC(c1ccc(F)cc1)C2=O)NCCCC(O)(P(=O)(O)O)P(=O)(O)O (centres undefined) on CCRF-CEM leukemia, growth = 96.7% (inactive)

# lookup: C[C@H]1[C@H]2[C@H]3CC[C@@H]4[C@@]5(C)CC[C@H](O)C(C)(C)[C@@H]5CC[C@@]4(C)[C@]3(C)CC[C@]23CO[C@]1(C)[C@@H](C(=O)/C=C\c1cccnc1)C3 on CCRF-CEM leukemia, growth = 30.8% (inactive)
